src = the supplement of paper PMC10567573

Provide the recorded protein stability index for the entries that follow.
B1: EPB41L3 (parent)
chain: GSKFRYSGRTQAQTRRASALIDRP

Variants of: B1
Assay: protein stability index of a GFP-peptide fusion (GPS, HEK-293T) (PSI 1-6); higher = more stable;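 further: lentivirally expressed fusions sorted by FACS into six bins by GFP to DsRed ratio, PSI derived from sequencing read proportions per bin multiplied by bin number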
Details: c terminus: a fixed tail appended
Numbers only.

Could I get protein stability index for every one of these entries?
1. Q11I
2. S7I
3. S18F
4. S7A
5. Y6H
6. R9L
7. G1C

1: 2.95; 2: 1.95; 3: 2.16; 4: 2.91; 5: 3.22; 6: 2.92; 7: 2.88

Could I get protein stability index for every one of these entries?
1. T10I
2. K3Y
3. R16K
4. D22Q
5. L20W

2.37
1.89
2.83
3.54
3.23

Could I get protein stability index for every one of these entries?
1. A12T
2. R5T
3. R9F
4. R15N
5. A19E

2.93
3.59
2.81
3.68
3.28

Could I get protein stability index for every one of these entries?
1. K3D
2. S7M
3. Y6Q

1. 2.5
2. 3.35
3. 3.71

Could I get protein stability index for every one of these entries?
1. A12H
2. L20V

2.82
3.52
